Tested on: 885512-296-R-J2-PDC complex spheroid growth, % test/control
Method notes: Anticancer human tumor 885512-296-R-J2-PDC patient-derived breast carcinoma cell line growth inhibition [AhR]
Test context: second compound 3.16 µM; first compound 3.16 µM; active compounds read low
Kindly state viability, T/C for each of the entries shown.
Numbers only, in %.

Here's what some known entries look like.
{"Molecule": "COc1cccc2c1C(=O)c1c(O)c3c(c(O)c1C2=O)CC(O)(C(=O)CO)CC3OC1CC(N)C(O)C(C)O1 (stereo unspecified) + Cc1cncc(-c2nc(NCCc3c[nH]c4ccccc34)c3ncn(C(C)C)c3n2)c1", "Unit tag": "%", "viability, T/C": 0.57}
{"Molecule": "CC1COCCN1c1cc(C2(S(C)(=N)=O)CC2)nc(-c2ccnc3[nH]ccc23)n1 (stereo unspecified) + Cc1cncc(-c2nc(NCCc3c[nH]c4ccccc34)c3ncn(C(C)C)c3n2)c1", "Unit tag": "%", "viability, T/C": 20.4}
{"Molecule": "Nc1ccn(C2OC(CO)C(O)C2(F)F)c(=O)n1 (stereo unspecified) + CC(CO)NC(=O)c1cc(-c2ccc(Cl)cc2)nn(-c2cnn(C)c2)c1=O", "Unit tag": "%", "viability, T/C": 4.31}
{"Molecule": "Nc1ccn(C2OC(CO)C(O)C2(F)F)c(=O)n1 (stereo unspecified) + Cc1ccccc1N=Nc1ccc(NC(=O)c2ccnn2C)c(C)c1", "Unit tag": "%", "viability, T/C": 4.88}
{"Molecule": "NS(=O)(=O)OCC1CC(n2ccc3c(NC4CCc5ccccc54)ncnc32)CC1O (stereo unspecified) + Cc1cncc(-c2nc(NCCc3c[nH]c4ccccc34)c3ncn(C(C)C)c3n2)c1", "Unit tag": "%", "viability, T/C": 3.02}

Task: What viability, T/C appears in the records for this molecule with 885512-296-R-J2-PDC complex spheroid growth, % test/control? COc1ccc([C@@H](O)c2cc(-c3ncnc4cc(N5CCOCC5)ccc34)c(F)cc2Cl)nn1 + Cc1cncc(-c2nc(NCCc3c[nH]c4ccccc34)c3ncn(C(C)C)c3n2)c1
Output: 42.6

###

Test system: 885512-296-R-J2-PDC complex spheroid growth, % test/control
Method notes: Anticancer human tumor 885512-296-R-J2-PDC cell line growth inhibition [AhR]; active = viability on the fitted dose curve at most 10% of control; inactive = the rest;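 note: spheroids exposed to compounds for seven days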
Test context: second compound 10 µM; first compound 1 µM
API: response.call in YES = active, NO = inactive

Solved cases below.
{"Compound": "COc1ccc([C@@H](O)c2cc(-c3ncnc4cc(N5CCOCC5)ccc34)c(F)cc2Cl)nn1 + Cc1cncc(-c2nc(NCCc3c[nH]c4ccccc34)c3ncn(C(C)C)c3n2)c1", "Class name": "NO"}
{"Compound": "COc1cc(C2c3cc4c(cc3C(OC3OC5COC(C)OC5C(O)C3O)C3COC(=O)C23)OCO4)cc(OC)c1O (configuration not stated) + Cc1ccccc1N=Nc1ccc(NC(=O)c2ccnn2C)c(C)c1", "Class name": "NO"}
{"Compound": "NS(=O)(=O)OCC1CC(n2ccc3c(NC4CCc5ccccc54)ncnc32)CC1O (configuration not stated) + Cc1ccccc1N=Nc1ccc(NC(=O)c2ccnn2C)c(C)c1", "Class name": "YES"}
{"Compound": "Nc1ncn(C2CC(O)C(CO)O2)c(=O)n1 (configuration not stated) + Cc1cncc(-c2nc(NCCc3c[nH]c4ccccc34)c3ncn(C(C)C)c3n2)c1", "Class name": "NO"}
{"Compound": "Nc1ncn(C2CC(O)C(CO)O2)c(=O)n1 (configuration not stated) + Cc1ccccc1N=Nc1ccc(NC(=O)c2ccnn2C)c(C)c1", "Class name": "NO"}

Task: For CC(C)c1c(-c2ccccc2)nc2c(C#N)c[nH]n2c1=O + Cc1ccccc1N=Nc1ccc(NC(=O)c2ccnn2C)c(C)c1 , which call appears in the assay record?
Output: NO

Task: // return assay outcome for O=C(C=Cc1cccc(S(=O)(=O)Nc2ccccc2)c1)NO + CC(CO)NC(=O)c1cc(-c2ccc(Cl)cc2)nn(-c2cnn(C)c2)c1=O
Output: NO
